- testSystem: T1, Cyno CD33 full length (cynomolgus monkey)
- T1 construct: also called cyCD33
- test: flow cytometry on HEK293F cells expressing cyno CD33
- Procedure: The purified antibodies were assessed for binding to stably transfected HEK293F cells expressing human CD33 or cyno CD33 (generation described above) along with the parental HEK293F as negative control. […] 30 μl running buffer containing Sytox Green live/dead dye (ThermoFisher) was added to all wells with cells and the plates were read on an iQue IntelliCyt flow cytometer. […] Antibody binding was assessed by the mean fluorescence intensity in the AF647 channel. […]
recordedMetric: MFI at 0.6 nM (MFI)
I only need the number, in MFI, no unit after it.

MFI at 0.6 nM for C33B912 (antibody, V domains shown, OMNIMouse-derived anti-CD33 mAb; also called C33H252/C33L118; C33F550) VH: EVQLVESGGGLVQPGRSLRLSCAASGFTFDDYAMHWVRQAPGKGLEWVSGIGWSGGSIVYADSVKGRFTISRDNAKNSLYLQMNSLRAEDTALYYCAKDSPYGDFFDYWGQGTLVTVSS VL: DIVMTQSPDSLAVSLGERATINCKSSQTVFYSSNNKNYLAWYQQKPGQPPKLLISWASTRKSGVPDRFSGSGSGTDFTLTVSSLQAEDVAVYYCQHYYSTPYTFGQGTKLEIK is 1730

Switching to the query record.
MFI at 0.6 nM for C33B914 (antibody, V domains shown, OMNIMouse-derived anti-CD33 mAb; same V regions as C33B906; also called C33H254/C33L120; C33F552) VH: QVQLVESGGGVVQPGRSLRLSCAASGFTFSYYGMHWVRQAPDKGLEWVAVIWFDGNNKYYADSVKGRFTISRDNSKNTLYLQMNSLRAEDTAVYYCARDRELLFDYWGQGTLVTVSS VL: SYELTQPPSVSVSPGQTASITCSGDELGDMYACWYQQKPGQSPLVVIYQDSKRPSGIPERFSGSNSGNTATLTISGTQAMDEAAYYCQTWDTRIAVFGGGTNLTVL is 22100
